Reported T/C by item:
- System: CD2F1 mice, L1210 leukemia ip, survival T/C
- assay.comment: NCI In Vivo Anticancer Drug Screen. Data for tumor model L1210 Leukemia (intraperitoneal) in CD2F1 (CDF1) mice
- test.conditions: endpoint: mean survival time; dose: 100.0 mg/kg/injection; schedule: Q04DX003 (ip); vehicle: saline with Tween-80; higher = longer survival
Toxic doses and inconclusive results are not listed.
measure.name: T/C

>>> meas_value("C[N+](C)(C)CC(=O)N/N=C\\c1c(O)ccc2ccccc12")
"97 % of control"
>>> meas_value("CCCCCCNC(=O)Nc1cccc(Cl)c1C")
"91 % of control"
>>> meas_value("CN1C=CC(C(C(N)=O)c2ccccc2)c2ccccc21 (configuration not stated)")
"96 % of control"
>>> meas_value("COc1cc2c(cc1OC)C1CC(O)C3CCCCC3N1CC2 (configuration not stated)")
"93 % of control"
>>> meas_value("CCCCCCCCOC(=O)c1ccccc1C(=O)OCCCCCCCC")
"98 % of control"
>>> meas_value("CC/S(=N\\S(=O)(=O)c1ccc(C)cc1)c1ccccc1 (configuration not stated)")
"104 % of control"
>>> meas_value("CN(C)C1(Cc2ccccc2)c2ccccc2-c2ccc(Br)cc21 (configuration not stated)")
"89 % of control"
>>> meas_value("C=CCOc1cccc[n+]1CC(=O)CC(O)(C(F)(F)F)C(F)(F)F")
"95 % of control"
>>> meas_value("Clc1ccc(C#Cc2ccc(Cl)cc2)cc1")
"100 % of control"
>>> meas_value("CC(C)C(C(O)c1ccccc1)[N+](=O)[O-] (configuration not stated)")
"102 % of control"
>>> meas_value("Cc1cc(NC(=O)Oc2ccc([N+](=O)[O-])cc2)ccc1S(=O)(=O)F")
"94 % of control"
>>> meas_value("BrC1CCCCCCC1")
"92 % of control"
>>> meas_value("CC(C)(C)NC/C(=C\\c1ccccc1)C(=O)c1ccccc1")
"117 % of control"
>>> meas_value("CCC12C(=O)C(CC)(C3=C1c1cccc4cccc3c14)C1C(=O)OC(=O)C12 (configuration not stated)")
"97 % of control"
>>> meas_value("Cn1cc(C(O)CN2CCCCC2)c2ccccc21 (configuration not stated)")
"93 % of control"
>>> meas_value("CC(=O)COc1ccc(C)cc1")
"105 % of control"
>>> meas_value("O=C1CC(c2ccccc2)CC(=O)O1")
"102 % of control"

* * *

- Tested on: CD2F1 mice, L1210 leukemia ip, survival T/C
- assay.comment: NCI In Vivo Anticancer Drug Screen. Data for tumor model L1210 Leukemia (intraperitoneal) in CD2F1 (CDF1) mice
- test.conditions: endpoint: mean survival time; dose: 100.0 mg/kg/injection; schedule: Q04DX002 (ip); vehicle: saline with Tween-80; higher = longer survival
Inconclusive results and toxic doses are left out.
measure.name: T/C

>>> meas_value("CCCCNC(=O)c1ccc2c(c1)C(=O)N(CCCC)C2=O")
"101 % of control"
>>> meas_value("O=C(CCC(O)c1ccccc1)c1ccccc1 (stereo not given)")
"91 % of control"
>>> meas_value("CCCCOC(=O)COc1ccc(F)cc1F")
"95 % of control"
>>> meas_value("COc1ccc(NC(=O)Oc2ccc(C3CCCCC3)cc2)cc1")
"101 % of control"
>>> meas_value("CN(Cc1cnc(N)c(C#N)n1)c1ccc(C(=O)NC(CCC(=O)OC(C)(C)C)C(=O)OC(C)(C)C)cc1 (stereo not given)")
"91 % of control"
>>> meas_value("CCCCOC(=O)Cc1c(C)[nH]c2ccc(-c3ccccc3)cc12")
"102 % of control"
>>> meas_value("CCCCOC(=O)COc1ccc(F)cc1")
"94 % of control"
>>> meas_value("Cc1ccc(C(=O)Nc2cccc(-n3cnc4c(=O)[nH]c(N)nc43)c2)cc1S(=O)(=O)F")
"101 % of control"
>>> meas_value("CCOC(=O)C1(Cc2ccccc2)SCCCS1")
"105 % of control"
>>> meas_value("O=C(c1cccnc1)c1c[nH]c2ccccc12")
"101 % of control"
>>> meas_value("CN(C)C(=S)Oc1c(S(=O)(=O)F)ccc(Cl)c1Cl")
"91 % of control"
>>> meas_value("O=C(Nc1ccccc1Cl)Nc1ccccc1Cl")
"90 % of control"
>>> meas_value("CC(C)(C#N)OC(=O)Nc1cccc(Cl)c1")
"93 % of control"
>>> meas_value("COc1ccccc1NC(=O)Oc1cccc(C)c1")
"91 % of control"
>>> meas_value("Cc1cccc(NC(=O)/C=C/c2ccccc2)c1C")
"98 % of control"
>>> meas_value("COc1ccc(COc2ccc([N+](=O)[O-])cc2)cc1")
"87 % of control"
>>> meas_value("COc1cc2c(cc1OC)-c1nc(N)sc1CC2")
"107 % of control"
>>> meas_value("CC(=O)Oc1ccc2ccccc2c1-c1c(OC(C)=O)ccc2ccccc12")
"101 % of control"
>>> meas_value("Cc1cn(CC(=O)c2cc3ccccc3[nH]2)c(=O)[nH]c1=O")
"93 % of control"
>>> meas_value("CCOc1ccccc1/C=C1\\N=C(c2cc(OC)c(OC)c(OC)c2)OC1=O")
"106 % of control"
>>> meas_value("Cc1cccc(C2=N/C(=C\\c3ccc(N(C)C)cc3)C(=O)O2)c1")
"94 % of control"
>>> meas_value("CN1C(=O)CCSC1=S")
"105 % of control"
>>> meas_value("Cn1c(=O)ccc2ccccc21")
"101 % of control"
>>> meas_value("CC1=CC(=O)C(CCC(=O)O)C(C)(C)C1 (stereo not given)")
"91 % of control"
>>> meas_value("O=C1OC(O)(c2ccc(Cl)cc2)C(Cc2ccccc2)=C1c1ccccc1 (stereo not given)")
"97 % of control"
>>> meas_value("O=c1ccnc(SCc2ccccc2)[nH]1")
"105 % of control"
>>> meas_value("CC12CCCCC1=CC(=O)CC2 (stereo not given)")
"96 % of control"
>>> meas_value("NS(=O)(=O)c1ccc(N2CCCCC2)c([N+](=O)[O-])c1")
"91 % of control"
>>> meas_value("O=C(Nc1ccccc1)Oc1c(Cl)cc(Cl)c2ccccc12")
"88 % of control"
>>> meas_value("CCC(O)(c1ccccc1)C(O)(CC)c1ccccc1 (stereo not given)")
"86 % of control"
>>> meas_value("CCOC(=O)c1ccc(NC(=S)NC(=O)c2cccc(Br)c2)cc1")
"93 % of control"
>>> meas_value("CCCC[N+](CCCC)(CCCC)CCCC.[Cl-].[Cl-].[Cl-].[Cl-].[Cl-].[Cl-].[Cl-].[Cl-].[Re].[Re]")
"112 % of control"
>>> meas_value("COc1ccccc1N=Nc1c(O)n(-c2ccccc2OC)c(=S)n(-c2ccccc2OC)c1=O")
"94 % of control"
>>> meas_value("[O-][n+]1ccc(-c2ccccc2)nc1")
"103 % of control"
>>> meas_value("CC1=C(/C=C/C(=O)O)C(C)(C)CCC1")
"92 % of control"
